Hello, the source for this data is patent US20240300923A1, in case you need it.

measurement target: human cKit kinase (Homo sapiens (Human))
Sequence (P10721 26-976): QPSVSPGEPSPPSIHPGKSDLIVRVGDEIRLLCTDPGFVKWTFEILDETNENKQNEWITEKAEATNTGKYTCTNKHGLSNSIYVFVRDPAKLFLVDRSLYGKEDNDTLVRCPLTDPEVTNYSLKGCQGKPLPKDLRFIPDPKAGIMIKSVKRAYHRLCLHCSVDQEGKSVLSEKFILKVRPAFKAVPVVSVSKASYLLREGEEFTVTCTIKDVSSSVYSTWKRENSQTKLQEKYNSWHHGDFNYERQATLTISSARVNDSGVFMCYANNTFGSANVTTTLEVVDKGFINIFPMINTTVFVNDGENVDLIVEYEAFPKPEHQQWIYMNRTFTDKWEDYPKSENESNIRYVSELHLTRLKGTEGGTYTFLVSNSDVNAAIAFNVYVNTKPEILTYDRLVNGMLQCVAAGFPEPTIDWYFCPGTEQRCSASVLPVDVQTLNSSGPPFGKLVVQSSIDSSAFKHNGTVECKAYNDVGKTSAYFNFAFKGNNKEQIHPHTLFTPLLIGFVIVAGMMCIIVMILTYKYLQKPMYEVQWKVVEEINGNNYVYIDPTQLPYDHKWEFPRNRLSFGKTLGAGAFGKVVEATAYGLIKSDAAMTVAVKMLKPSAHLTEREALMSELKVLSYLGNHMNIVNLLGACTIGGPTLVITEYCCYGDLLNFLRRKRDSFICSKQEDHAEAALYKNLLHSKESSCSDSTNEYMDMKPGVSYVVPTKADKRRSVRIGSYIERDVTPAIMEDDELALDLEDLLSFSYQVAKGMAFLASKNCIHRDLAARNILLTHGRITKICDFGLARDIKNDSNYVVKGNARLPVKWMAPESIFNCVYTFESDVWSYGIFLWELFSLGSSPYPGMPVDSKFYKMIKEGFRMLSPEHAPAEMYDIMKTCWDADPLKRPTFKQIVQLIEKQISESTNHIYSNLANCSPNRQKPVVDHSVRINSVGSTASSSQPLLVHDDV
protocol notes: cKit enzyme assay (LANCE, Eurofins CEREP)
experimental conditions: human recombinant enzyme, 50 μM ATP; geometric mean of at least n=2, * = single experiment
measure name: IC50

Some solved cases for reference:
[
  {
    "molecular string": "COc1cc2nn([C@H]3CC[C@H](N(C)C(=O)[C@@H](C)O)CC3)cc2cc1C(=O)Nc1cccn(-c2cnn(C)n2)c1=O",
    "measure name": "IC50",
    "recorded value": "> 100 µM"
  },
  {
    "molecular string": "COc1cc2nn([C@H]3CC[C@H](c4nnco4)CC3)cc2cc1C(=O)Nc1cccn(C)c1=O",
    "measure name": "IC50",
    "recorded value": "> 100 µM"
  }
]

Here is the next item to consider.
Form field: reported IC50 of "COc1cc2nn([C@H]3CC[C@H](N(C)C(C)=O)C[C@H]3C)cc2cc1C(=O)Nc1cccn(C)c1=O" > 40 µM
